All values here come from the supplement of paper PMC5998384.

System: HeLa Kyoto
Experiment: thermal stability score vs G1/S (z-score of summed log2 fold changes over temperatures); higher = more thermally stable than in G1/S
Conditions: cell cycle stage: mitosis
Returns YES if the recorded thermal stability score is greater than or equal to 0.3, and NO otherwise.

Prompt: Form field: thermal stability score at least 0.3? Entry: MWSAGRGGAAWPVLLGLLLALLVPGGGAAKTGAELVTCGSVLKLLNTHHRVRLHSHDIKYGSGSGQQSVTGVEASDDANSYWRIRGGSEGGCPRGSPVRCGQAVRLTHVLTGKNLHTHHFPSPLSNNQEVSAFGEDGEGDDLDLWTVRCSGQHWEREAAVRFQHVGTSVFLSVTGEQYGSPIRGQHEVHGMPSANTHNTWKAMEGIFIKPSVEPSAGHDEL [SDF2L1]
Response: YES

Prompt: Form field: thermal stability score at least 0.3? Entry: MNTVLSRANSLFAFSLSVMAALTFGCFITTAFKDRSVPVRLHVSRIMLKNVEDFTGPRERSDLGFITFDITADLENIFDWNVKQLFLYLSAEYSTKNNALNQVVLWDKIVLRGDNPKLLLKDMKTKYFFFDDGNGLKGNRNVTLTLSWNVVPNAGILPLVTGSGHVSVPFPDTYEITKSY [SPCS3]
Response: YES

Prompt: Form field: thermal stability score at least 0.3? Entry: MAMQMQLEANADTSVEEESFGPQPISRLEQCGINANDVKKLEEAGFHTVEAVAYAPKKELINIKGISEAKADKILAEAAKLVPMGFTTATEFHQRRSEIIQITTGSKELDKLLQGGIETGSITEMFGEFRTGKTQICHTLAVTCQLPIDRGGGEGKAMYIDTEGTFRPERLLAVAERYGLSGSDVLDNVAYARAFNTDHQTQLLYQASAMMVESRYALLIVDSATALYRTDYSGRGELSARQMHLARFLRMLLRLADEFGVAVVITNQVVAQVDGAAMFAADPKKPIGGNIIAHASTTRLYLRKGRGETRICKIYDSPCLPEAEAMFAINADGVGDAKD [RAD51]
Response: NO

Prompt: Form field: thermal stability score at least 0.3? Entry: MVGRNSAIAAGVCGALFIGYCIYFDRKRRSDPNFKNRLRERRKKQKLAKERAGLSKLPDLKDAEAVQKFFLEEIQLGEELLAQGEYEKGVDHLTNAIAVCGQPQQLLQVLQQTLPPPVFQMLLTKLPTISQRIVSAQSLAEDDVE [TOMM20]
Response: NO

Prompt: Form field: thermal stability score at least 0.3? Entry: MTEADVNPKAYPLADAHLTKKLLDLVQQSCNYKQLRKGANEATKTLNRGISEFIVMAADAEPLEIILHLPLLCEDKNVPYVFVRSKQALGRACGVSRPVIACSVTIKEGSQLKQQIQSIQQSIERLLV [SNU13]
Response: NO

====

For each of the substances below, state its thermal stability score.
Tested on: HeLa Kyoto
Assay: thermal stability score vs G1/S (z-score of summed log2 fold changes over temperatures); higher = more thermally stable than in G1/S
Conditions: cell cycle stage: mitosis

Prompt: I have this substance here, MEADKDDTQQILKEHSPDEFIKDEQNKGLIDEITKKNIQLKKEIQKLETELQEATKEFQIKEDIPETKMKFLSVETPENDSQLSNISCSFQVSSKVPYEIQKGQALITFEKEEVAQNVVSMSKHHVQIKDVNLEVTAKPVPLNSGVRFQVYVEVSKMKINVTEIPDTLREDQMRDKLELSFSKSRNGGGEVDRVDYDRQSGSAVITFVEIGVADKILKKKEYPLYINQTCHRVTVSPYTEIHLKKYQIFSGTSKRTVLLTGMEGIQMDEEIVEDLINIHFQRAKNGGGEVDVVKCSLGQPHIAYFEE [NMI] , and I need its recorded thermal stability score.
Response: -4.03

Prompt: I have this substance here, MSSARFDSSDRSAWYMGPVSRQEAQTRLQGQRHGMFLVRDSSTCPGDYVLSVSENSRVSHYIINSLPNRRFKIGDQEFDHLPALLEFYKIHYLDTTTLIEPAPRYPSPPMGSVSAPNLPTAEDNLEYVRTLYDFPGNDAEDLPFKKGEILVIIEKPEEQWWSARNKDGRVGMIPVPYVEKLVRSSPHGKHGNRNSNSYGIPEPAHAYAQPQTTTPLPAVSGSPGAAITPLPSTQNGPVFAKAIQKRVPCAYDKTALALEVGDIVKVTRMNINGQWEGEVNGRKGLFPFTHVKIFDPQNPDENE [CRKL] , and I need its recorded thermal stability score.
Response: -0.418

Prompt: I have this substance here, `HNRNPK` , and I need its recorded thermal stability score.
Response: 2.21

Prompt: I have this substance here, MASPQLCRALVSAQWVAEALRAPRAGQPLQLLDASWYLPKLGRDARREFEERHIPGAAFFDIDQCSDRTSPYDHMLPGAEHFAEYAGRLGVGAATHVVIYDASDQGLYSAPRVWWMFRAFGHHAVSLLDGGLRHWLRQNLPLSSGKSQPAPAEFRAQLDPAFIKTYEDIKENLESRRFQVVDSRATGRFRGTEPEPRDGIEPGHIPGTVNIPFTDFLSQEGLEKSPEEIRHLFQEKKVDLSKPLVATCGSGVTACHVALGAYLCGKPDVPIYDGSWVEWYMRARPEDVISEGRGKTH [MPST] , and I need its recorded thermal stability score.
Response: 0.97

Prompt: I have this substance here, MASQLQNRLRSALALVTGAGSGIGRAVSVRLAGEGATVAACDLDRAAAQETVRLLGGPGSKEGPPRGNHAAFQADVSEARAARCLLEQVQACFSRPPSVVVSCAGITQDEFLLHMSEDDWDKVIAVNLKGTFLVTQAAAQALVSNGCRGSIINISSIVGKVGNVGQTNYAASKAGVIGLTQTAARELGRHGIRCNSVLPGFIATPMTQKVPQKVVDKITEMIPMGHLGDPEDVADVVAFLASEDSGYITGTSVEVTGGLFM [HSD17B8] , and I need its recorded thermal stability score.
Response: -1.5

Prompt: I have this substance here, MFVPCGESAPDLAGFTLLMPAVSVGNVGQLAMDLIISTLNMSKIGYFYTDCLVPMVGNNPYATTEGNSTELSINAEVYSLPSRKLVALQLRSIFIKYKSKPFCEKLLSWVKSSGCARVIVLSSSHSYQRNDLQLRSTPFRYLLTPSMQKSVQNKIKSLNWEEMEKSRCIPEIDDSEFCIRIPGGGITKTLYDESCSKEIQMAVLLKFVSEGDNIPDALGLVEYLNEWLQILKPLSDDPTVSASRWKIPSSWRLLFGSGLPPALF [PSMG2] , and I need its recorded thermal stability score.
Response: -2.71

====

System: HeLa Kyoto
Experiment: solubility in G1/S (NP-40 vs SDS abundance) (log2 ratio); higher = more soluble
Settings: cell cycle stage: G1/S
Metric Name: solubility in G1/S (log2)

Prompt: I have this sequence here, MAPRRVRSFLRGLPALLLLLLFLGPWPAASHGGKYSREKNQPKPSPKRESGEEFRMEKLNQLWEKAQRLHLPPVRLAELHADLKIQERDELAWKKLKLDGLDEDGEKEARLIRNLNVILAKYGLDGKKDARQVTSNSLSGTQEDGLDDPRLEKLWHKAKTSGKFSGEELDKLWREFLHHKEKVHEYNVLLETLSRTEEIHENVISPSDLSDIKGSVLHSRHTELKEKLRSINQGLDRLRRVSHQGYSTEAEFEEPRVIDLWDLAQSANLTDKELEAFREELKHFEAKIEKHNHYQKQLEIAHEKLRHAESVGDGERVSRSREKHALLEGRTKELGYTVKKHLQDLSGRISRARHNEL [LRPAP1] , and I need its recorded solubility in G1/S (log2).
Response: 0.724

Prompt: I have this sequence here, MSDVEENNFEGRESRSQSKSPTGTPARVKSESRSGSRSPSRVSKHSESHSRSRSKSRSRSRRHSHRRYTRSRSHSHSHRRRSRSRSYTPEYRRRRSRSHSPMSNRRRHTGSRANPDPNTCLGVFGLSLYTTERDLREVFSRYGPLSGVNVVYDQRTGRSRGFAFVYFERIDDSKEAMERANGMELDGRRIRVDYSITKRAHTPTPGIYMGRPTHSGGGGGGGGGGGGGGGGRRRDSYYDRGYDRGYDRYEDYDYRYRRRSPSPYYSRYRSRSRSRSYSPRRY [TRA2A] , and I need its recorded solubility in G1/S (log2).
Response: -1.11

Prompt: I have this sequence here, MAARWRFWCVSVTMVVALLIVCDVPSASAQRKKEMVLSEKVSQLMEWTNKRPVIRMNGDKFRRLVKAPPRNYSVIVMFTALQLHRQCVVCKQADEEFQILANSWRYSSAFTNRIFFAMVDFDEGSDVFQMLNMNSAPTFINFPAKGKPKRGDTYELQVRGFSAEQIARWIADRTDVNIRVIRPPNYAGPLMLGLLLAVIGGLVYLRRSNMEFLFNKTGWAFAALCFVLAMTSGQMWNHIRGPPYAHKNPHTGHVNYIHGSSQAQFVAETHIVLLFNGGVTLGMVLLCEAATSDMDIGKRKIMCVAGIGLVVLFFSWMLSIFRSKYHGYPYSFLMS [MAGT1] , and I need its recorded solubility in G1/S (log2).
Response: -0.189
